System: 697
ASSAY_SUMMARY: selective drug sensitivity score (sDSS, relative to normal bone marrow) (sDSS (score)); higher = more potent and effective on the cell line relative to normal bone marrow cells;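 note: ALL cell lines in 384-well plates, five doses spanning 10,000-fold, each plate scaled between vehicle and 100 µmol/L benzalkonium chloride controls, sDSS an adapted area-under-curve metric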
RECORDED_CONDITIONS: 72 h
Rule: Fulfilled for selective drug sensitivity score not less than 6, Not fulfilled for anything less.

Exercise: Does the reported selective drug sensitivity score for CN1CCN(C(=O)c2ccc3cc(CCNc4ncnc5ccc(C#N)cc45)ccc3c2)CC1 [Senexin_B] (top concentration 1000 nM) fall at or above the 6 mark?
Solution: Not fulfilled

Exercise: Does the reported selective drug sensitivity score for Cc1nc(=O)c2cc(CN(C)c3ccc(C(=O)N[C@@H](CCC(=O)O)C(=O)O)s3)ccc2[nH]1 [Raltitrexed] (top concentration 1000 nM) fall at or above the 6 mark?
Solution: Fulfilled

Exercise: Does the reported selective drug sensitivity score for CC(C)(C)Cn1c(N)nc2ccc(-c3[nH]c(C(C)(C)C)nc3-c3ccc(F)cc3)nc21 [Ralimetinib] (top concentration 10000 nM) fall at or above the 6 mark?
Solution: Not fulfilled

Exercise: Does the reported selective drug sensitivity score for COc1cc(CCc2cc(NC(=O)c3ccc(N4CC(C)NC(C)C4)cc3)n[nH]2)cc(OC)c1 (stereo unspecified) [AZD4547] (top concentration 1000 nM) fall at or above the 6 mark?
Solution: Not fulfilled

Exercise: Does the reported selective drug sensitivity score for Cn1cc(-c2[nH]c3cc(NC(=O)[C@H](N)C4CCCCC4)cc4c3c2C=NNC4=O)cn1 (top concentration 10000 nM) fall at or above the 6 mark?
Solution: Fulfilled

Exercise: Does the reported selective drug sensitivity score for Nc1cccc2c1C(=O)N(C1CCC(=O)NC1=O)C2=O (stereo unspecified) [Pomalidomide] (top concentration 10000 nM) fall at or above the 6 mark?
Solution: Not fulfilled

###

System: TMD5
ASSAY_SUMMARY: selective drug sensitivity score (sDSS, relative to normal bone marrow) (sDSS (score)); higher = more potent and effective on the cell line relative to normal bone marrow cells
RECORDED_CONDITIONS: 72 h
MEASURED_PARAMETER: selective drug sensitivity score

Reported selective drug sensitivity score for C[C@@H]1CCN(C(=O)CC#N)C[C@@H]1N(C)c1ncnc2[nH]ccc12 [Tofacitinib] (top concentration 5000 nM) was -7.86

Reported selective drug sensitivity score for CN1CC[C@@H](NC(=O)Nc2ccc(C#N)cc2)C[C@@H]1c1nc2ccccc2[nH]1 [Glasdegib] (top concentration 1000 nM) was 0.3

Reported selective drug sensitivity score for CONC(=O)c1ccccc1Nc1cc(Nc2cc(C)nn2C(C)C)ncc1Cl (top concentration 1000 nM) was -0.94

Reported selective drug sensitivity score for Cc1nc2cccc(N)c2c(=O)n1C1CCC(=O)NC1=O (stereo not drawn) [Avadomide (CC122)] (top concentration 10000 nM) was 3.5

Reported selective drug sensitivity score for CON(C)C(=O)N1N=C(c2cc(F)ccc2F)S[C@@]1(CCCN)c1ccccc1 [Filanesib] (top concentration 1000 nM) was 10.5

Reported selective drug sensitivity score for CC(=O)O[C@]1(C(C)=O)CC[C@H]2[C@@H]3C=C(C)C4=CC(=O)CC[C@]4(C)[C@H]3CC[C@@]21C [Megestrol_acetate] (top concentration 10000 nM) was 7.82

Reported selective drug sensitivity score for C[C@H]1CN(C2COC2)CCN1c1ccc(Nc2cc(-c3ccnc(N4CCn5c(cc6c5CC(C)(C)C6)C4=O)c3CO)cn(C)c2=O)nc1 [GDC-0853] (top concentration 1000 nM) was 0

Reported selective drug sensitivity score for C[C@]1(O)C[C@@H](c2nc(-c3ccc4ccc(-c5ccccc5)nc4c3)c3c(N)nccn32)C1 [Linsitinib] (top concentration 10000 nM) was 1.62

Reported selective drug sensitivity score for CCN(CC)CCNC(=O)c1c(C)[nH]c(/C=C2\C(=O)Nc3ccc(F)cc32)c1C [Sunitinib] (top concentration 1000 nM) was 3.26

Reported selective drug sensitivity score for C[C@H]1C=C2C(=O)O[C@H]3CC[C@@H](C1)[C@@]23O [Galiellalactone] (top concentration 25000 nM) was 1.46

Reported selective drug sensitivity score for COc1cc(N2CCN(C)CC2)ccc1Nc1nccc(-c2cn(C)c3cnccc23)n1 [AZ191] (top concentration 10000 nM) was -4.32

Reported selective drug sensitivity score for COc1ccc(-c2ccc3c(N4CCOC[C@@H]4C)nc(N4CCOC[C@@H]4C)nc3n2)cc1CO [AZD8055] (top concentration 10000 nM) was -1.62

Reported selective drug sensitivity score for Cc1cc(Nc2nc(N[C@@H](C)c3ncc(F)cn3)ncc2Cl)[nH]n1 [AZD1480] (top concentration 1000 nM) was -1.98

###

System: KASUMI-10
ASSAY_SUMMARY: selective drug sensitivity score (sDSS, relative to normal bone marrow) (sDSS (score)); higher = more potent and effective on the cell line relative to normal bone marrow cells
RECORDED_CONDITIONS: 72 h
MEASURED_PARAMETER: selective drug sensitivity score
Just the number, please, no unit after it.

Param item: CCN(CC)CCNC(=O)c1c(C)[nH]c(/C=C2\C(=O)Nc3ccc(F)cc32)c1C [Sunitinib] (top concentration 1000 nM) ; param system: KASUMI-10; output selective drug sensitivity score: 10.4

Param item: COc1cc2c(Nc3ccc(Cl)c(Cl)c3F)ncnc2cc1OC[C@@H]1C[C@@H]2CN(C)C[C@@H]2C1 [Tesevatinib] (top concentration 1000 nM) ; param system: KASUMI-10; output selective drug sensitivity score: -1.06

Param item: CN1CCN(C2CCN(C(=O)Nc3cc(Oc4ccc(NC(=O)C5(C(=O)Nc6ccc(F)cc6)CC5)c(F)c4)ccn3)CC2)CC1 [Golvatinib] (top concentration 2500 nM) ; param system: KASUMI-10; output selective drug sensitivity score: 3.26

Param item: CC(C)(C)Cn1c(N)nc2ccc(-c3[nH]c(C(C)(C)C)nc3-c3ccc(F)cc3)nc21 [Ralimetinib] (top concentration 10000 nM) ; param system: KASUMI-10; output selective drug sensitivity score: 0.86

Param item: COc1ccc(COc2cc3oc(=O)c4cc(C(C)O)ccc4c3cc2OC)cc1 (stereo unspecified) [Palomid-529] (top concentration 10000 nM) ; param system: KASUMI-10; output selective drug sensitivity score: -0.24

Param item: CCS(=O)(=O)N1CCN(c2ccc(Nc3ncc(C(N)=O)c(NC4CC4)n3)cc2)CC1 [Cerdulatinib] (top concentration 10000 nM) ; param system: KASUMI-10; output selective drug sensitivity score: 0.24

###

Tested on: SEM cells
ASSAY_SUMMARY: selective drug sensitivity score (sDSS, relative to normal bone marrow) (sDSS (score)); higher = more potent and effective on the cell line relative to normal bone marrow cells
RECORDED_CONDITIONS: 72 h
Please respond with reported selective drug sensitivity score for every item in the list.
Just the number, please, no unit after it.

Reported selective drug sensitivity score for NC(=O)/C(=C/n1cnc(-c2cc(C(F)(F)F)cc(C(F)(F)F)c2)n1)c1cncnc1 [Eltanexor] (top concentration 10000 nM) was 3.96

Reported selective drug sensitivity score for COc1cc(C(=O)O)ccc1NC(=O)[C@@H]1N[C@@H](CC(C)(C)C)[C@](C#N)(c2ccc(Cl)cc2F)[C@H]1c1cccc(Cl)c1F [Idasanutlin] (top concentration 10000 nM) was -10

Reported selective drug sensitivity score for CC(=O)O[C@H]1C(=O)[C@@]2(C)[C@H]([C@H](OC(=O)c3ccccc3)[C@]3(O)C[C@H](OC(=O)[C@H](O)[C@@H](NC(=O)c4ccccc4)c4ccccc4)C(C)=C1C3(C)C)[C@]1(OC(C)=O)CO[C@@H]1C[C@@H]2O [Paclitaxel] (top concentration 1000 nM) was 21.3

Reported selective drug sensitivity score for C[C@@H](Nc1cc(F)cc(F)c1)c1cc(C(=O)N(C)C)cc2c(=O)cc(N3CCOCC3)oc12 [AZD-8186] (top concentration 1000 nM) was 2.44

Reported selective drug sensitivity score for CCOc1ccn(-c2ccc(F)cc2)c(=O)c1C(=O)Nc1ccc(Oc2ccnc(N)c2Cl)c(F)c1 (top concentration 2500 nM) was 4.9

###

Tested on: COG-LL-332h
ASSAY_SUMMARY: selective drug sensitivity score (sDSS, relative to normal bone marrow) (sDSS (score)); higher = more potent and effective on the cell line relative to normal bone marrow cells
RECORDED_CONDITIONS: 72 h
# selective drug sensitivity score binned as bin 1 (below 2), bin 2 (2 to below 4), bin 3 (4 or more)

Exercise: Assign a bin to Cc1ccc(-n2nc(C(C)(C)C)cc2NC(=O)Nc2ccc(OCCN3CCOCC3)c3ccccc23)cc1 [Doramapimod] (top concentration 10000 nM)
Solution: bin 3

Exercise: Assign a bin to CC(O)c1cc(C(=O)N[C@@H](C)Cn2ccc(-c3ccc(C#N)c(Cl)c3)n2)n[nH]1 (stereo partly drawn) [ODM-201] (top concentration 2500 nM)
Solution: bin 1

Exercise: Assign a bin to CON(C)C(=O)N1N=C(c2cc(F)ccc2F)S[C@@]1(CCCN)c1ccccc1 [Filanesib] (top concentration 1000 nM)
Solution: bin 3

Exercise: Assign a bin to CCC1(c2ccc(N)cc2)CCC(=O)NC1=O (stereo not drawn) [Aminoglutethimide] (top concentration 10000 nM)
Solution: bin 1

Exercise: Assign a bin to C[C@@H]1CN(C(=O)c2ccc(NC(=O)c3cc(O[C@H](C)c4c(Cl)ccc(F)c4Cl)c(N)nn3)cc2)C[C@H](C)N1 [Ensartinib] (top concentration 1000 nM)
Solution: bin 2

Exercise: Assign a bin to Nc1ccn([C@@H]2O[C@H](CO)[C@@H](O)C2(F)F)c(=O)n1 [Gemcitabine] (top concentration 1000 nM)
Solution: bin 3

Exercise: Assign a bin to O=c1[nH]c(=O)n([C@H]2C[C@H](O)[C@@H](CO)O2)cc1C(F)(F)F [Trifluridine] (top concentration 10000 nM)
Solution: bin 3

Exercise: Assign a bin to C[C@H]1C=C2C(=O)O[C@H]3CC[C@@H](C1)[C@@]23O [Galiellalactone] (top concentration 25000 nM)
Solution: bin 3

Exercise: Assign a bin to CCCCOc1nc(N)c2c(n1)N(Cc1cccc(CN3CCCC3)c1)CC(=O)N2 [Vesatolimod] (top concentration 10000 nM)
Solution: bin 1

Exercise: Assign a bin to Cc1cc(Nc2nc(N[C@@H](C)c3ncc(F)cn3)ncc2Cl)[nH]n1 [AZD1480] (top concentration 1000 nM)
Solution: bin 1

Exercise: Assign a bin to C[C@H](Nc1ncnc2nc[nH]c12)c1cc2cccc(Cl)c2c(=O)n1-c1ccccc1 [Duvelisib] (top concentration 500 nM)
Solution: bin 2

Exercise: Assign a bin to Nc1nc(Nc2ccc3c(c2)CC[C@@H](N2CCCC2)CC3)nn1-c1cc2c(nn1)-c1ccccc1CCC2 [BGB324] (top concentration 10000 nM)
Solution: bin 2
